# koff annotations
TESTED_TARGET: T1, recombinant human VEGF165 (human, UniProt P15692 27-191)
T1 construct: mature; Isoform VEGF165 of the entry; also called hVEGF165; hVEGF
T1 sequence (P15692 other isoform, or with tags, fused parts or gaps): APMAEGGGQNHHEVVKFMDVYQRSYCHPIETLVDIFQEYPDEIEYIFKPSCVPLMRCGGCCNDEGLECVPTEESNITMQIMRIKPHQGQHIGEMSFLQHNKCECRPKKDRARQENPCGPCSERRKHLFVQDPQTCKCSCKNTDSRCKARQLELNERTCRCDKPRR
ASSAY_INFO: Biacore SPR, VEGF immobilized, pH 5
Express it in s⁻¹; write the number only.

Examples from the recorded data:
# BINDER, VAL
rows = [
    ("578-min (scFv, also called EP578 min; Protein Nr; 820) scFv: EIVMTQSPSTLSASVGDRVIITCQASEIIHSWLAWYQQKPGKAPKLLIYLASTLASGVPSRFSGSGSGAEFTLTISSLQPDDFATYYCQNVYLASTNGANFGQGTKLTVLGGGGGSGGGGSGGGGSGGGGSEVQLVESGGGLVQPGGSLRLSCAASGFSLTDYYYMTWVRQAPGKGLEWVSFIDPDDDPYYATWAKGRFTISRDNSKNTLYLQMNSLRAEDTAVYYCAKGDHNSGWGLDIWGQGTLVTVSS", 0.0103),
    ("567-min (scFv, also called Protein Nr; 884) scFv: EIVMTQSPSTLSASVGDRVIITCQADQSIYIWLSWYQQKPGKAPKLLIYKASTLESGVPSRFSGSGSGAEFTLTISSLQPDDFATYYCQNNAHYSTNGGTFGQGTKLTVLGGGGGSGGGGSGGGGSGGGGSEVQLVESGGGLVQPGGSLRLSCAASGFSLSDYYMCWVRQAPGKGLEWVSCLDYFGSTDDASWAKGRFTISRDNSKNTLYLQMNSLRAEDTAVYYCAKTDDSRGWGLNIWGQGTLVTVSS", 0.000461),
]

*Q* Query (binder): 509-maxII (scFv, VH tied by name; also called Protein Nr) scFv: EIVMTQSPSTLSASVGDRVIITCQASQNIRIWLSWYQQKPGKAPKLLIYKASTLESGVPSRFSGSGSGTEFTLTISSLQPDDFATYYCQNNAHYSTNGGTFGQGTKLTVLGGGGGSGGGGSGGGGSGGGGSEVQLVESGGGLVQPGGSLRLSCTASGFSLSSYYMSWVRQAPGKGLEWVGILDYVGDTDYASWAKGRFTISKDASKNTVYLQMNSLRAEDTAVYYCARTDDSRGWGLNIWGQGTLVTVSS ; field requested: koff
*A* 0.00282
